Listing of pIC50 toward Glycogen synthase kinase-3 beta (Homo sapiens, UniProt P49841), each taken from a published source.
pIC50: −log10 of the molar value.
Attribute measured: pIC50

[[record]]
compound_structure = "NC(=O)c1ccc(-c2ccnc(NCCCNc3ccc([N+](=O)[O-])cn3)n2)cc1"
meas_value = "≥ 6.00"

[[record]]
compound_structure = "CCOC(=O)c1cnc(NCCNc2ccc(C(=O)OC(C)(C)C)cn2)nc1-c1ccc(C#N)cc1"
meas_value = "≥ 5.00"

[[record]]
compound_structure = "O=c1cc(-c2ccncc2)nc2n1CC(F)(F)CN2C[C@@H](O)c1ccccc1"
meas_value = 7.22

[[record]]
compound_structure = "CN1Cc2cccc(c2)Nc2ncnc(n2)-c2ccnc(c2)NCCCNC(=O)CCN2CCC1CC2"
meas_value = "6.00 to 7.00"

[[record]]
compound_structure = "Nc1cccc(-c2ccnc3[nH]cc(C(=O)c4ccc(Cl)cc4)c23)c1"
meas_value = "≥ 5.00"

[[record]]
compound_structure = "NC(=O)c1ccc(-c2ccnc(NCc3cccc(C(F)(F)F)c3)n2)cc1"
meas_value = "≥ 5.00"

[[record]]
compound_structure = "CC(C)Oc1ccncc1NC(=O)c1ccnn2c(NC(=O)C3CC3)cnc12"
meas_value = 8.22

[[record]]
compound_structure = "CN(c1cccc(-c2ccnc(Nc3ccc(O)cc3)n2)c1)S(C)(=O)=O"
meas_value = 6.89

[[record]]
compound_structure = "Cn1ccnc1-c1cnc(NCCNc2ccc([N+](=O)[O-])c(N)n2)nc1-c1ccc(Cl)cc1Cl"
meas_value = "≥ 6.00"

